The reported numbers originate from ChEMBL document CHEMBL4028802.

- Species: Homo sapiens
- ASSAY NOTES: Liver toxicity in human assessed as induction of drug-induced liver injury by measuring verified drug-induced liver injury concern status
QUANTITY NAME: DILI_Concern

{"COMPOUND": "CCN(C)C(=O)Oc1cccc([C@H](C)N(C)C)c1 [RIVASTIGMINE]", "DILI_Concern": "Less-Dili-Concern"}
{"COMPOUND": "N#C[C@@H]1C[C@@H]2C[C@@H]2N1C(=O)[C@@H](N)C12CC3CC(CC(O)(C3)C1)C2 [SAXAGLIPTIN ANHYDROUS]", "DILI_Concern": "No-Dili-Concern"}
{"COMPOUND": "NC(=O)N1c2ccccc2C=Cc2ccccc21 [CARBAMAZEPINE]", "DILI_Concern": "Most-Dili-Concern"}
{"COMPOUND": "CN(C)Cc1ccc(CSCCN/C(=C\\[N+](=O)[O-])NCc2ccc3c(c2)OCO3)o1 [NIPEROTIDINE]", "DILI_Concern": "Most-Dili-Concern"}
{"COMPOUND": "C[C@H]1CN(C[C@H](Cc2ccccc2)C(=O)NCC(=O)O)CC[C@@]1(C)c1cccc(O)c1 [ALVIMOPAN]", "DILI_Concern": "No-Dili-Concern"}

For each of the compounds below, note its DILI_Concern.
1. CCN(CC)C(=O)/C(C#N)=C/c1cc(O)c(O)c([N+](=O)[O-])c1 [ENTACAPONE]
2. CCC(=O)O[C@](Cc1ccccc1)(c1ccccc1)[C@H](C)CN(C)C [PROPOXYPHENE]
3. NCC1O[C@H](O[C@H]2[C@@H](O)[C@H](O[C@H]3[C@H](O)[C@@H](N)C[C@@H](N)[C@@H]3O[C@H]3O[C@H](CN)[C@@H](O)[C@H](O)[C@H]3N)O[C@@H]2CO)[C@H](N)[C@@H](O)[C@@H]1O (some centres undefined)

Data returned:
["Less-Dili-Concern", "Less-Dili-Concern", "No-Dili-Concern"]
